Origin of values: ChEMBL document CHEMBL1932980

System name: Adenosine receptor A1 (Homo sapiens) (UniProt P30542)
Sequence (P30542 whole entry): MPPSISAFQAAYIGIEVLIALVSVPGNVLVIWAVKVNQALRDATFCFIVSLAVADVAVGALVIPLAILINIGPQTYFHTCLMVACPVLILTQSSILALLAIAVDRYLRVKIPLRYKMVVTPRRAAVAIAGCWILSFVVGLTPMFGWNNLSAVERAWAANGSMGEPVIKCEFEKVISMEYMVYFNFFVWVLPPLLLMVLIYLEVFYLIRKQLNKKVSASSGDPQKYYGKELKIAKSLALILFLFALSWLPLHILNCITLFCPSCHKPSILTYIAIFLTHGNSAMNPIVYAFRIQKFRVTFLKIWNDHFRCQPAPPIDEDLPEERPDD
Test: Binding affinity to recombinant human A1 adenosine receptor allosteric site expressed in CHO cells assessed as potentiation of CCPA-induced [3H]DPCPX displacement at 10 uM after 90 mins relative to control
Type: cell-based
Measured metric: fold change (FC)
Just the number, please.

The examples below pair each entry with its known result.
Look at this molecule and give its reported fold change (FC). Nc1scc(CN2CCN(c3cccc(Cl)c3)CC2)c1C(=O)c1ccc(Cl)cc1
3.7

Lookup Nc1scc(CN2CCN(c3cc(F)cc(F)c3)CC2)c1C(=O)c1ccc(Cl)cc1
4.8

Also check Nc1scc(CN2CCN(c3ccccc3C(F)(F)F)CC2)c1C(=O)c1ccc(Cl)cc1
3.6

Next record, please: Nc1scc(CN2CCN(Cc3ccc(F)cc3)CC2)c1C(=O)c1ccc(Cl)cc1
3.1

Let us now turn to Nc1scc(CN2CCN(CCc3ccc(Cl)cc3)CC2)c1C(=O)c1ccc(Cl)cc1
3.4

Same thing, different molecule: Nc1scc(CN2CCN(c3c(Cl)cccc3Cl)CC2)c1C(=O)c1ccc(Cl)cc1
2.9

Next molecule up: Nc1scc(CN2CCN(c3ccc(F)c(F)c3)CC2)c1C(=O)c1ccc(Cl)cc1
5.5

Also Nc1scc(CN2CCN(CCCc3ccc(Cl)cc3)CC2)c1C(=O)c1ccc(Cl)cc1 , if possible.
1.6

Further cases:
Look at this molecule and give its reported fold change (FC). Nc1scc(CN2CCN(c3cccc(F)c3)CC2)c1C(=O)c1ccc(Cl)cc1
3.9

And what about the molecule Nc1scc(CN2CCN(c3ccc(Cl)cc3Cl)CC2)c1C(=O)c1ccc(Cl)cc1 ?
3.7

* * *

System name: Adenosine receptor A1 (Homo sapiens)
Test: Binding affinity to recombinant human A1 adenosine receptor allosteric site expressed in CHO cells assessed as [3H]CCPA Bmax shift at 10 uM after 90 mins relative to control
Type: cell-based
Reported fold change (FC) values follow for various compounds

Some solved cases for reference:
Can you look up fold change (FC) on Adenosine receptor A1 (Homo sapiens) for Nc1scc(CN2CCN(Cc3ccc(Cl)cc3)CC2)c1C(=O)c1ccc(Cl)cc1 ?
4.5

And what about the compound COc1ccc(N2CCN(Cc3csc(N)c3C(=O)c3ccc(Cl)cc3)CC2)cc1 ?
3.3

Now this one: Nc1scc(CN2CCN(c3cccc4ccccc34)CC2)c1C(=O)c1ccc(Cl)cc1
1.1

New cases:
Which measured fold change (FC) belongs to Nc1scc(CN2CCN(CCCc3ccc(Cl)cc3)CC2)c1C(=O)c1ccc(Cl)cc1 , tested on Adenosine receptor A1 (Homo sapiens)?
1.6

Same lookup for Nc1scc(CN2CCN(c3c(F)cc(F)cc3F)CC2)c1C(=O)c1ccc(Cl)cc1 , please.
4.5

* * *

System name: Adenosine receptor A2a (Homo sapiens) (UniProt P29274)
Sequence (P29274 whole entry): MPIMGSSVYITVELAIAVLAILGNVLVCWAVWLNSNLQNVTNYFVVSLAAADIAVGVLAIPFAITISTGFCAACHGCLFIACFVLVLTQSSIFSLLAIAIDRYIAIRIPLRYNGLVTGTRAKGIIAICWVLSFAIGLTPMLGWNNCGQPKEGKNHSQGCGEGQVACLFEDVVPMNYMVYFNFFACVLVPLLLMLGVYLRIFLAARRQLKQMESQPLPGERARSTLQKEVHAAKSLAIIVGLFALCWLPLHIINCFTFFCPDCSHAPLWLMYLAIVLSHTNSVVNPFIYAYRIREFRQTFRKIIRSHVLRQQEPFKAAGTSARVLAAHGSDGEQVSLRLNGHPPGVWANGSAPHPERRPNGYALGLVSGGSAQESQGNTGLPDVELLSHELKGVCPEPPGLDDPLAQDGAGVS
Test: Displacement of [3H]ZM241385 from recombinant human A2A adenosine receptor expressed in CHO cells at 10 uM after 60 mins by scintillation counting
Format: cell-based
Measured metric: inhibition
Write down the value, and be sure its unit follows.

Fill in the blank: the reported inhibition of Nc1scc(CN2CCN(c3cccc(C(F)(F)F)c3)CC2)c1C(=O)c1ccc(Cl)cc1 is ____.
3%

Can you check Cc1sc(N)c(C(=O)c2cccc(C(F)(F)F)c2)c1C next?
0%

Another: Nc1scc(CN2CCN(c3ccncc3)CC2)c1C(=O)c1ccc(Cl)cc1
0%

Item: Nc1scc(CN2CCN(c3c(Cl)cccc3Cl)CC2)c1C(=O)c1ccc(Cl)cc1
0%

For Nc1scc(CN2CCN(C(=O)Cc3ccc(Cl)cc3)CC2)c1C(=O)c1ccc(Cl)cc1 then?
0%

Same read-out for Nc1scc(CN2CCN(c3ccccc3F)CC2)c1C(=O)c1ccc(Cl)cc1 ?
0%

How about CC(C)N1CCN(Cc2csc(N)c2C(=O)c2ccc(Cl)cc2)CC1 ?
0%

Also Nc1scc(CN2CCN(Cc3ccc(F)cc3)CC2)c1C(=O)c1ccc(Cl)cc1 , if possible.
0%

Also need Nc1scc(CN2CCN(C3CCCC3)CC2)c1C(=O)c1ccc(Cl)cc1 , thanks.
3%

Others:
Look at this compound and give its reported inhibition. Nc1scc(CN2CCN(c3ccc(Cl)cc3F)CC2)c1C(=O)c1ccc(Cl)cc1
0%
